Each item that follows carries a reported Accumulative excretion percentage.
Test: Urinary excretion study in rats after oral NS, SF or CNS (LC–MS/MS)
Type: in vivo
Details: rat urine, oral CNS 110 mg/kg, 12 h
Reply numerically in %, unit not repeated.

Examples with answers:
[Q] What value of measured Accumulative excretion percentage is listed for CC(C)=CCC[C@](C)(O[C@@H]1O[C@H](CO[C@@H]2O[C@H](CO)[C@@H](O)[C@H](O)[C@H]2O)[C@@H](O)[C@H](O)[C@H]1O)[C@H]1CC[C@]2(C)[C@@H]1[C@H](O)C[C@@H]1[C@@]3(C)CC[C@H](O[C@@H]4O[C@H](CO)[C@@H](O)[C@H](O)[C@H]4O[C@@H]4O[C@H](CO)[C@@H](O)[C@H](O)[C@H]4O)C(C)(C)[C@@H]3CC[C@]12C [ginsenoside Rb1] ?
[A] 0.013

[Q] What value of measured Accumulative excretion percentage is listed for CC(C)=CCC[C@](C)(O[C@@H]1O[C@H](CO)[C@@H](O)[C@H](O)[C@H]1O)[C@H]1CC[C@]2(C)[C@@H]1[C@H](O)C[C@@H]1[C@@]3(C)CC[C@H](O)C(C)(C)[C@@H]3[C@@H](O[C@@H]3O[C@H](CO)[C@@H](O)[C@H](O)[C@H]3O[C@@H]3O[C@@H](C)[C@H](O)[C@@H](O)[C@H]3O)C[C@]12C [ginsenoside Re] ?
[A] 0.069

[Q] What value of measured Accumulative excretion percentage is listed for CC(C)=CCC[C@](C)(O[C@@H]1O[C@H](CO)[C@@H](O)[C@H](O)[C@H]1O)[C@H]1CC[C@]2(C)[C@@H]1[C@H](O)C[C@@H]1[C@@]3(C)CC[C@H](O)C(C)(C)[C@@H]3[C@@H](O[C@@H]3O[C@H](CO)[C@@H](O)[C@H](O)[C@H]3O)C[C@]12C [ginsenoside Rg1] ?
[A] 0.188

Next:
[Q] What value of measured Accumulative excretion percentage is listed for CC(C)=CCC[C@](C)(O[C@@H]1O[C@H](CO)[C@@H](O)[C@H](O)[C@H]1O)[C@H]1CC[C@]2(C)[C@@H]1[C@H](O)C[C@@H]1[C@@]3(C)CC[C@H](O[C@@H]4O[C@H](CO)[C@@H](O)[C@H](O)[C@H]4O[C@@H]4O[C@H](CO)[C@@H](O)[C@H](O)[C@H]4O)C(C)(C)[C@@H]3CC[C@]12C [ginsenoside Rd] ?
[A] 0.006
